System: MDA-MB-231 breast cancer cell line
Starred links: 1 amine or outer side, 2 acyl side, 3 side chain; linkers in the order of their positions; H or OH if unused. Non-standard residues stand in square brackets, D forms with d. Residues, ends and D or L forms follow the SMILES beside them. ξ: configuration not given here. Pro(4R-Bn) = O=C(O)[C@@H]1C[C@@H](Cc2ccccc2)CN1; Bip = N[C@@H](Cc1ccc(-c2ccccc2)cc1)C(=O)O; Cysteamide = C(CS[*:3])N[*:1]; Tle = CC(C)(C)[C@H](N)C(=O)O; ξDisc = O=C(O)C1NCc2ccccc21; NMeA = CN[C@@H](C)C(=O)O
MEASURED QUANTITY: pEC50
pEC50 (log units): -log10 of the concentration in mol/L.

In: Test system MDA-MB-231 breast cancer cell line; read-out pEC50; what value for CN[C@@H](C)C(=O)N[C@H](C(=O)N1C[C@H](Cc2ccccc2)C[C@H]1C(=O)N[C@@H](Cc1ccc(-c2ccccc2)cc1)C(=O)NCCS)C(C)(C)C [SMAC17, N^MeAla-Tle-(4-Bzl)Pro-Bip-NHCH2CH2SH] (H-[NMeA][Tle][Pro(4R-Bn)][Bip]-Cysteamide; N-terminus assumed) ?
Out: 4.97

In: Now the same for CN[C@@H](C)C(=O)N[C@H](C(=O)N1C[C@H](Cc2ccccc2)C[C@H]1C(=O)N1Cc2ccccc2C1C(=O)NCCS)C(C)(C)C (stereo partly drawn) [SMAC4, N^MeAla-Tle-(4-Bzl)Pro-Disc-NHCH2CH2SH] (H-[NMeA][Tle][Pro(4R-Bn)][ξDisc]-Cysteamide; N-terminus assumed)
Out: 4.33

In: Now the same for CN[C@@H](C)C(=O)N[C@H](C(=O)N1C[C@H](Cc2ccccc2)C[C@H]1C(=O)NC(CC(=O)NCCS)c1cccc2ccccc12)C(C)(C)C (stereo partly shown) [SMAC13]
Out: 4.66

In: Now the same for CN[C@@H](C)C(=O)N[C@H](C(=O)N1C[C@H](Cc2ccccc2)C[C@H]1C(=O)N1c2ccccc2C[C@H]1C(=O)NCCS)C(C)(C)C [SMAC5, N^MeAla-Tle-(4-Bzl)Pro-Idc-NHCH2CH2SH]
Out: 4.17

###

Starred links: 1 amine or outer side, 2 acyl side, 3 side chain; linkers in the order of their positions; H or OH if unused. Positions of bridges follow the written chain, without caps; N, C: chain ends. Non-standard residues stand in square brackets, D forms with d. Residues, ends and D or L forms follow the SMILES beside them. ξ: configuration not given here. Phe(F5) = N[C@@H](Cc1c(F)c(F)c(F)c(F)c1F)C(=O)O; 1Nal = N[C@@H](Cc1cccc2ccccc12)C(=O)O; oXylylene = c1ccc(C[*:2])c(C[*:1])c1; Cha = N[C@@H](CC1CCCCC1)C(=O)O; ξDisc = O=C(O)C1NCc2ccccc21
The reader will find EC50 measurements below, all made with HCT116 colorectal cancer cells.
Value expressed in µM; do not type the unit.

In: Find the recorded EC50 belonging to CC(C)C[C@H](NC(=O)[C@@H](C)NC(=O)[C@@H]1CSCc2ccccc2CSC[C@@H](NC(=O)[C@H](C)NC(=O)[C@H](Cc2ccccc2)NC(=O)[C@H](CO)NC(=O)[C@@H](N)[C@@H](C)O)C(=O)N[C@@H](Cc2ccc(O)cc2)C(=O)N[C@@H](Cc2c[nH]c3ccccc23)C(=O)N1)C(=O)N[C@@H](CO)C(=O)N1CCC[C@H]1C(N)=O [ArB14o] and report it.
Out: 249

In: Now the same for N=C(N)NCCC[C@@H](N)C(=O)N[C@@H](CCCNC(=N)N)C(=O)N[C@@H](Cc1c(F)c(F)c(F)c(F)c1F)C(=O)N[C@@H](CCCNC(=N)N)C(=O)N[C@@H]1CSCc2ccccc2CSC[C@@H](C(=O)N[C@H](CCCNC(=N)N)C(=O)N[C@@H](CC2CCCCC2)C(=O)N[C@@H](CCCNC(=N)N)C(=O)N2Cc3ccccc3C2C(N)=O)NC(=O)[C@H](Cc2cccc3ccccc23)NC(=O)[C@H](Cc2ccc(O)cc2)NC1=O (stereo partly drawn) [ArB14Co] (H-[dR]R[Phe(F5)]R[dC]Y[1Nal]C[dR][Cha]R[ξDisc]-NH2; linker 5-8 via oXylylene)
Out: 11.2

In: Now the same for C[C@@H](O)[C@H](N)C(=O)N[C@@H](CO)C(=O)N[C@@H](Cc1ccccc1)C(=O)N[C@@H](CCCNC(=N)N)C(=O)N[C@@H](CCCNC(=N)N)C(=O)N[C@@H](Cc1ccc(O)cc1)C(=O)N[C@H]1CS(=O)(=O)Cc2cccc(c2)CS(=O)(=O)C[C@@H](C(=O)N[C@@H](CO)C(=O)N2CCC[C@H]2C(N)=O)NC(=O)[C@H](CCCNC(=N)N)NC(=O)[C@H](CCCNC(=N)N)NC1=O
Out: 142
